System: MDA-MB-231
METHOD: Cytotoxicity against human MDA-MB-231 cells assessed as cell growth at 10 uM after 48 hrs by sulforhodamine B assay relative to control
Type: functional
CONDITION SUMMARY: MDA-MB-231, 48 h, read-out: Activity
Examples of molecules with documented growth at 10 µM follow.

SMILES RECORD	SYSTEM NAME	growth at 10 µM / %
COc1ccc(C(=O)/C=C/c2cc(-c3ccc4c(c3)OCO4)n[nH]2)cc1OC	MDA-MB-231	-14
COc1ccc(C(=O)/C=C/c2cc(-c3cc(OC)c(OC)c(OC)c3)n[nH]2)cc1	MDA-MB-231	-33
COc1ccc(C(=O)/C=C/c2cc(-c3ccc(OC)c(OC)c3)n[nH]2)cc1OC	MDA-MB-231	-18
COc1cc2c(cc1OC)C(=O)/C(=C/c1cc(-c3ccc4c(c3)OCO4)n[nH]1)C2	MDA-MB-231	-87
COc1cc(-c2cc(/C=C/C(=O)c3ccc(F)c(F)c3)[nH]n2)cc(OC)c1OC	MDA-MB-231	-38
COc1ccc(-c2cc(/C=C/C(=O)c3ccc(N)cc3)[nH]n2)cc1	MDA-MB-231	-7

###

System: OVCAR-5
METHOD: Cytotoxicity against human OVCAR5 cells assessed as cell growth at 1 uM after 48 hrs by sulforhodamine B assay relative to control
Assay type: functional
CONDITION SUMMARY: OVCAR-5, 48 h, read-out: Activity
# growth at 1 µM per record follows

SMILES RECORD	SCALE UNIT	growth at 1 µM
COc1cc(-c2cc(/C=C/C(=O)c3ccc(F)c(F)c3)[nH]n2)cc(OC)c1OC	%	92
COc1ccc(C(=O)/C=C/c2cc(-c3cc(OC)c(OC)c(OC)c3)n[nH]2)cc1	%	95
COc1ccc(-c2cc(/C=C/C(=O)c3ccc(N)cc3)[nH]n2)cc1	%	92
COc1ccc(C(=O)/C=C/c2cc(-c3cc(OC)c(OC)c(OC)c3)n[nH]2)cc1OC	%	86

###

growth at 100 µM: recorded values
Tested on: SN12C
METHOD: Cytotoxicity against human SN12C cells assessed as cell growth at 100 uM after 48 hrs by sulforhodamine B assay relative to control
Format: functional
CONDITION SUMMARY: read-out: Activity

SMILES RECORD	growth at 100 µM / %
COc1cc2c(cc1OC)C(=O)/C(=C/c1cc(-c3ccc4c(c3)OCO4)n[nH]1)C2	-96
COc1cc(C(=O)/C=C/c2cc(-c3ccc4c(c3)OCO4)n[nH]2)cc(OC)c1OC	-96
COc1ccc(-c2cc(/C=C/C(=O)c3cc(OC)c(OC)c(OC)c3)[nH]n2)cc1OC	-67
COc1cc(-c2cc(/C=C/C(=O)c3ccc(Cl)c(Cl)c3)[nH]n2)cc(OC)c1OC	11
COc1ccc(-c2cc(/C=C/C(=O)c3ccc(N)cc3)[nH]n2)cc1OC	-90
COc1cc(-c2cc(/C=C/C(=O)c3ccc(F)c(F)c3)[nH]n2)cc(OC)c1OC	-22
COc1cc(C(=O)/C=C/c2cc(-c3cc(OC)c(OC)c(OC)c3)n[nH]2)cc(OC)c1OC	-97
COc1ccc(C(=O)/C=C/c2cc(-c3ccc4c(c3)OCO4)n[nH]2)cc1OC	-73

###

Tested on: MOLT-4
METHOD: Cytotoxicity against human MOLT4 cells assessed as cell growth at 100 uM after 48 hrs by sulforhodamine B assay relative to control
Type: functional
CONDITION SUMMARY: MOLT-4, 48 h, read-out: Activity
OBSERVATION TYPE: growth at 100 µM (%)

SMILES RECORD	OBSERVED VALUE
COc1ccc(C(=O)/C=C/c2cc(-c3ccc4c(c3)OCO4)n[nH]2)cc1OC	-20
COc1cc(-c2cc(/C=C/C(=O)c3ccc(F)c(F)c3)[nH]n2)cc(OC)c1OC	-14
COc1cc(-c2cc(/C=C/C(=O)c3ccc4c(c3)OCO4)[nH]n2)cc(OC)c1OC	-10
COc1cc(C(=O)/C=C/c2cc(-c3ccc4c(c3)OCO4)n[nH]2)cc(OC)c1OC	-13
COc1ccc(-c2cc(/C=C/C(=O)c3ccc(OC)c(OC)c3)[nH]n2)cc1	-33

###

Tested on: PC-3
METHOD: Cytotoxicity against human PC3 cells assessed as cell growth at 0.1 uM after 48 hrs by sulforhodamine B assay relative to control
Assay type: functional
CONDITION SUMMARY: PC-3, 48 h, read-out: Activity
OBSERVATION TYPE: growth at 0.1 µM

SMILES RECORD	SYSTEM NAME	OBSERVATION TYPE	OBSERVED VALUE
COc1cc(-c2cc(/C=C/C(=O)c3ccc(Cl)c(Cl)c3)[nH]n2)cc(OC)c1OC	PC-3	growth at 0.1 µM	100%
COc1cc(-c2cc(/C=C/C(=O)c3ccc(F)c(F)c3)[nH]n2)cc(OC)c1OC	PC-3	growth at 0.1 µM	93%
COc1ccc(C(=O)/C=C/c2cc(-c3ccc4c(c3)OCO4)n[nH]2)cc1OC	PC-3	growth at 0.1 µM	95%
COc1ccc(-c2cc(/C=C/C(=O)c3ccc(OC)c(OC)c3)[nH]n2)cc1	PC-3	growth at 0.1 µM	91%
COc1ccc(C(=O)/C=C/c2cc(-c3ccc(OC)c(OC)c3)n[nH]2)cc1OC	PC-3	growth at 0.1 µM	95%

###

Tested on: MDA-MB-435
METHOD: Cytotoxicity against human MDA-MB-435 cells assessed as growth inhibition after 48 hrs by sulforhodamine B assay
Assay type: functional
CONDITION SUMMARY: MDA-MB-435, 48 h
Binary call on GI50 with cut-off 2000 nM: strictly below means class 1, and equality or higher means class 0.

SMILES RECORD	LABEL
COc1cc(C(=O)/C=C/c2cc(-c3ccc4c(c3)OCO4)n[nH]2)cc(OC)c1OC	class 0
COc1cc(-c2cc(/C=C/C(=O)c3ccc(N)cc3)[nH]n2)cc(OC)c1OC	class 1
COc1ccc(-c2cc(/C=C/C(=O)c3ccc(N)cc3)[nH]n2)cc1OC	class 0
COc1ccc(-c2cc(/C=C/C(=O)c3ccc(N)cc3)[nH]n2)cc1	class 0
COc1ccc(-c2cc(/C=C/C(=O)c3ccc4c(c3)OCO4)[nH]n2)cc1OC	class 1

###

Each record here notes measured growth at 0.01 µM.
Test system: NCI-H460
METHOD: Cytotoxicity against human NCI-H460 cells assessed as cell growth at 0.01 uM after 48 hrs by sulforhodamine B assay relative to control
Assay type: functional
CONDITION SUMMARY: NCI-H460, 48 h, read-out: Activity
OBSERVATION TYPE: growth at 0.01 µM (%)

SMILES RECORD	SYSTEM NAME	OBSERVATION TYPE	SCALE UNIT	OBSERVED VALUE
COc1cc(-c2cc(/C=C/C(=O)c3ccc(N)cc3)[nH]n2)cc(OC)c1OC	NCI-H460	growth at 0.01 µM	%	102
COc1ccc(-c2cc(/C=C/C(=O)c3ccc(OC)c(OC)c3)[nH]n2)cc1	NCI-H460	growth at 0.01 µM	%	100
COc1ccc(C(=O)/C=C/c2cc(-c3ccc4c(c3)OCO4)n[nH]2)cc1OC	NCI-H460	growth at 0.01 µM	%	101
COc1cc(-c2cc(/C=C/C(=O)c3ccc(F)c(F)c3)[nH]n2)cc(OC)c1OC	NCI-H460	growth at 0.01 µM	%	106

###

System: CAKI-1
METHOD: Cytotoxicity against human Caki1 cells assessed as cell growth at 0.01 uM after 48 hrs by sulforhodamine B assay relative to control
Format: functional
CONDITION SUMMARY: CAKI-1, 48 h, read-out: Activity

SMILES RECORD	growth at 0.01 µM, %
COc1ccc(C(=O)/C=C/c2cc(-c3ccc4c(c3)OCO4)n[nH]2)cc1OC	93
COc1cc(-c2cc(/C=C/C(=O)c3ccc4c(c3)OCO4)[nH]n2)cc(OC)c1OC	96
COc1ccc(-c2cc(/C=C/C(=O)c3ccc(OC)c(OC)c3)[nH]n2)cc1	98
COc1cc(-c2cc(/C=C/C(=O)c3ccc(F)c(F)c3)[nH]n2)cc(OC)c1OC	95
COc1cc(C(=O)/C=C/c2cc(-c3ccc4c(c3)OCO4)n[nH]2)cc(OC)c1OC	96

###

GI50 listing for selected compounds.
Test system: RPMI-8226
METHOD: Cytotoxicity against human RPMI8226 cells assessed as growth inhibition after 48 hrs by sulforhodamine B assay
Type: functional
CONDITION SUMMARY: RPMI-8226, 48 h
OBSERVATION TYPE: GI50

SMILES RECORD	SYSTEM NAME	OBSERVATION TYPE	OBSERVED VALUE
COc1ccc(-c2cc(/C=C/C(=O)c3ccc(OC)c(OC)c3)[nH]n2)cc1	RPMI-8226	GI50	320 nM
COc1ccc(-c2cc(/C=C/C(=O)c3cc(OC)c(OC)c(OC)c3)[nH]n2)cc1OC	RPMI-8226	GI50	290 nM
COc1ccc(-c2cc(/C=C/C(=O)c3ccc(N)cc3)[nH]n2)cc1OC	RPMI-8226	GI50	1280 nM
COc1ccc(-c2cc(/C=C/C(=O)c3ccc(N)cc3)[nH]n2)cc1	RPMI-8226	GI50	600 nM
COc1cc2c(cc1OC)C(=O)/C(=C/c1cc(-c3ccc4c(c3)OCO4)n[nH]1)C2	RPMI-8226	GI50	230 nM
